Tested on: CAKI-1
PROTOCOL_NOTES: NCI tumour cell line growth inhibition, 48 h
The source made the active and inactive calls. Rule as the data show it: active = GI50 up to about 1.1 µM and inactive = higher.
Let's look at some compounds and their measured GI50.
QUANTITY_NAME: GI50

• COC(=O)C1=Cc2cn(S(=O)(=O)c3ccc(C)cc3)c3cccc(c23)C(C=C(C)C)N1C(C)=O (stereo not drawn) = 12.6 µM (inactive)
• CN1CN(c2ccccc2)C2(CCN(C(=O)OC(C)(C)C)CC2)C1=O = > 100 µM (inactive)
• CCCCOP(=O)(OCCCC)/C(C#N)=C/c1ccc(C)o1 = 60.5 µM (inactive)

----------
System: HCC 2998
PROTOCOL_NOTES: NCI tumour cell line growth inhibition, 48 h
Activity calls are given as the source filed them. Rule as the data show it: active = GI50 up to about 1.1 µM and inactive = higher.
Possible outcomes: True = active, False = inactive

- CC(=O)/C(=C\n1c(=S)[nH]c2ccc([N+](=O)[O-])cc21)C(=O)Nc1ccccc1C: False
- COc1ccc(C(O)CC(O)(C(F)(F)F)C(F)(F)F)cc1 (stereo unspecified): False
- COC(=O)/C(=N\O)C(C(=O)C=C(C)C)C(=O)C(=O)Nc1ccccc1C (stereo unspecified): False
- CC1OC(=O)C(C(C)C)NC(=O)C(C(C)C)OC(=O)C(C(C)C)NC(=O)C(C)OC(=O)C(C(C)C)NC(=O)C(C(C)C)OC(=O)C(C(C)C)NC(=O)C(C)OC(=O)C(C(C)C)NC(=O)C(C(C)C)OC(=O)C(C(C)C)NC1=O (stereo unspecified): True
- CCC1=CC2Cc3nc4cc(Cl)ccc4c(N)c3C(C1)C2 (stereo unspecified): False
- Cc1cc(C)nc(NS(=O)(=O)c2ccc(NC(=O)c3ccc4nc5ccccc5c(Nc5ccc(S(=O)(=O)N=C(N)N)cc5)c4c3)cc2)n1: False
- COc1ccc(Cc2c(N)[nH]c(=O)n(C)c2=O)cc1: False
- NC1c2c(Cl)sc(Cl)c2C(=O)C1O (stereo unspecified): False
- S=C1NNC(=S)NN1: True
- NC(=S)Nc1ccc2c(c1)oc1ccccc12: False
- Cc1c2ccccc2c(=O)n2c(-c3ccccn3)cccc12: False
- O=C(O)CCC/N=C(\C(=N\CCCC(=O)O)c1ccccc1)c1ccccc1: False
- COc1ccc2c(CCNC(=O)/C=C/c3ccccc3)c(C(C)=O)[nH]c2c1[N+](=O)[O-]: False
- Nc1nc2c(ncn2CC2CCC(CO)C2)c(=O)[nH]1 (stereo unspecified): False
- N#Cc1c(-c2ccc(Cl)cc2)c(-c2ccc(Cl)cc2)nn(CCOC(=O)CCC(=O)O)c1=O: True
- COc1c(C(CC(C)C)OC(C)=O)ccc2c1C(=O)OCc1cc(C)cc(O)c1O2 (stereo unspecified): False

The measured values listed here are drawn from ChEMBL document CHEMBL1201862.
